The measured values listed here are drawn from patent US20250018014A1.

# pIC50 values compiled below
target_under_test: binding between TBK1 and full-length Regnase-1 (FL_Reg1) (Homo sapiens, UniProt Q5D1E8)
Construct: made in house; host or cells: Expi293 cells
Sequence (Q5D1E8 whole entry): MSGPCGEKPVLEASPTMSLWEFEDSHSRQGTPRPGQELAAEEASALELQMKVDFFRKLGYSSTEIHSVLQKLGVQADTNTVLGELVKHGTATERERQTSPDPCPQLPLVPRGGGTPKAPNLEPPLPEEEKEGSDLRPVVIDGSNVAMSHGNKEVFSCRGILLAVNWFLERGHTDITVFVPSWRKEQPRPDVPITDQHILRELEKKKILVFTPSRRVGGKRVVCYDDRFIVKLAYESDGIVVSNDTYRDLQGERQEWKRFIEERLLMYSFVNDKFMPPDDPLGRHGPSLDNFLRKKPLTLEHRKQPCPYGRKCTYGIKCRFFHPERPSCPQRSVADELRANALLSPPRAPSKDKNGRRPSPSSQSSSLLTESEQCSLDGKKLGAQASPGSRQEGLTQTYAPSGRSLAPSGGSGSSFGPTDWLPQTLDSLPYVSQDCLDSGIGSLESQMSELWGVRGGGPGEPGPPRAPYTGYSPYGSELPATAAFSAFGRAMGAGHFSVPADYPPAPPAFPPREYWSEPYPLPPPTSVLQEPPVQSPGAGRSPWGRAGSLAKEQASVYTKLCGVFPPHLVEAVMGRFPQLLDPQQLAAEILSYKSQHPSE
experiment: Inhibition of kinase-Regnase-1 binding by the compounds (AlphaScreen), TBK1
experimental_conditions: Table 13; binding between TBK1 and Regnase-1; read-out: Binding inhibition FL_Reg1, 50% inhibition concentration (TBK1)
pIC50: −log10 of the molar value. Residues, ends and D or L forms follow the SMILES beside them.

molecule="CC(C)[C@@H]1NC(=O)[C@H](CCCCN)NC(=O)[C@H](Cc2ccc(O)cc2)NC(=O)[C@H](Cc2c[nH]c3ccccc23)NC(=O)[C@H](CO)NC(=O)[C@H]([C@@H](C)O)NC(=O)[C@H](C)N(C)C(=O)C[C@@H](C(=O)N2CCCC2)NC(=O)[C@H](CCC(N)=O)NC(=O)CNC(=O)[C@H](Cc2c[nH]c3ccccc23)NC(=O)[C@H](CC(N)=O)NC1=O [PP1] (HELM PEPTIDE1{[meA].T.S.W.Y.K.V.N.W.G.Q.D.[C1CCN([*:1])C1]}$PEPTIDE1,PEPTIDE1,1:R1-12:R3$$$V2.0)" meas_value="< 4.21"

As a next step, examine the molecule that follows.
Endpoint output: pIC50 of CC[C@H](C)[C@@H]1NC(=O)[C@H](CC(=O)O)NC(=O)[C@H](C)N(C)C(=O)C[C@@H](C(=O)N2CCCC2)NC(=O)[C@H](Cc2c[nH]c3ccccc23)NC(=O)[C@H](CC(=O)O)NC(=O)[C@H](Cc2c[nH]c3ccccc23)NC(=O)[C@H](Cc2ccc(O)cc2)NC(=O)[C@H](CC(=O)O)NC(=O)[C@H](Cc2ccccc2)NC(=O)[C@H](Cc2c[nH]c3ccccc23)NC1=O [PP17] (HELM PEPTIDE1{[meA].D.I.W.F.D.Y.W.D.W.D.[C1CCN([*:1])C1]}$PEPTIDE1,PEPTIDE1,1:R1-11:R3$$$V2.0) . Value? > 7.22
